Source: ChEMBL document CHEMBL3526076

- Test system: PXR mRNA
- test_protocol: Effect on PXR mRNA expression in rat hepatocytes at 1 uM by RT-PCR analysis relative to control
- Format: ADME, cell-based, Hepatocyte
- test_parameters: read-out: FC

input_smiles | fold induction at 1 µM
CC(C)(C)[C@]1(O)C[C@@H]2OC(=O)C[C@@]23C(=O)O[C@@H]2OC(=O)[C@H](O)[C@]213 | 1.1

* * *

- Tested on: CAR mRNA
- test_protocol: Effect on CAR mRNA expression in human hepatocytes at 10 uM by RT-PCR analysis relative to control
- Assay type: ADME, cell-based, Hepatocyte
- test_parameters: read-out: FC

input_smiles | fold induction at 10 µM
CC(C)(C)[C@]1(O)C[C@@H]2OC(=O)C[C@@]23C(=O)O[C@@H]2OC(=O)[C@H](O)[C@]213 | 1.4

* * *

- Test system: PXR mRNA
- test_protocol: Effect on PXR mRNA expression in human hepatocytes at 25 uM by RT-PCR analysis relative to control
- Type: ADME, cell-based, Hepatocyte
- test_parameters: read-out: FC

input_smiles | fold induction at 25 µM
CC(C)(C)[C@]1(O)C[C@@H]2OC(=O)C[C@@]23C(=O)O[C@@H]2OC(=O)[C@H](O)[C@]213 | 1.2

* * *

- Test system: CAR mRNA
- test_protocol: Effect on CAR mRNA expression in human hepatocytes at 50 uM by RT-PCR analysis relative to control
- Assay type: ADME, cell-based, Hepatocyte
- test_parameters: read-out: FC
assay_metric: fold induction at 50 µM

input_smiles | result_value
CC(C)(C)[C@]1(O)C[C@@H]2OC(=O)C[C@@]23C(=O)O[C@@H]2OC(=O)[C@H](O)[C@]213 | 1.4

* * *

- study_system: CYP2B activity (CAR activation) (Rattus norvegicus, UniProt Q9QUS1)
- Sequence (Q9QUS1 whole entry): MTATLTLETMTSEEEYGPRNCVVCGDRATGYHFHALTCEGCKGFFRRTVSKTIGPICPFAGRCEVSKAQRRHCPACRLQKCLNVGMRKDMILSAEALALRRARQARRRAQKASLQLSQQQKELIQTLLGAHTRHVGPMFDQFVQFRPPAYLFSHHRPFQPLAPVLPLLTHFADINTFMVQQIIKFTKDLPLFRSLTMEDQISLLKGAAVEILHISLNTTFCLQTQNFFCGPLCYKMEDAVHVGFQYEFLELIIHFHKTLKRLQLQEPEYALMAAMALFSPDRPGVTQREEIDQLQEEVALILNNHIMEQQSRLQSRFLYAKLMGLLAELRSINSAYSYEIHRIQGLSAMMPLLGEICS
- test_protocol: Activation of CAR in rat hepatocytes assessed as increase in CYP2B-mediated benzyloxyresorufin O-dealkylation at 100 uM after 24 hrs by spectrofluorometric analysis relative to control
- Assay type: ADME, cell-based, Hepatocyte
- test_parameters: probe benzyloxyresorufin (O-dealkylation), read-out: FC

molecule | fold induction at 24 h, 100 µM
CCC1(c2ccccc2)C(=O)NC(=O)NC1=O [PHENOBARBITAL SODIUM] | 12

* * *

- Test system: CAR mRNA
- test_protocol: Effect on CAR mRNA expression in rat hepatocytes at 30 uM by RT-PCR analysis relative to control
- Format: ADME, cell-based, Hepatocyte
- test_parameters: read-out: FC

input_smiles | study_system | fold induction at 30 µM
CC(C)(C)[C@]1(O)C[C@@H]2OC(=O)C[C@@]23C(=O)O[C@@H]2OC(=O)[C@H](O)[C@]213 | CAR mRNA | 1

* * *

- Tested on: CAR mRNA
- test_protocol: Effect on CAR mRNA expression in human hepatocytes at 25 uM by RT-PCR analysis relative to control
- Format: ADME, cell-based, Hepatocyte
- test_parameters: read-out: FC
assay_metric: fold induction at 25 µM

input_smiles | result_value
CC(C)(C)[C@]1(O)C[C@@H]2OC(=O)C[C@@]23C(=O)O[C@@H]2OC(=O)[C@H](O)[C@]213 | 1.4
